Each entry below carries its reported Vd.
Assay: clinical
Conditions: human, in vivo, iv, Vdss
propertyMeasured: Vd (L/kg)

compound | propertyMeasured | measValue
CCOc1ccc2ccccc2c1C(=O)N[C@@H]1C(=O)N2[C@@H]1SC(C)(C)[C@@H]2C(=O)O | Vd | 0.22
O=C(O)Cc1ccccc1Nc1c(Cl)cccc1Cl | Vd | 0.22
CC[C@]1(O)C[C@@H]2CN(CCc3c([nH]c4ccccc34)[C@@](C(=O)OC)(c3cc4c(cc3OC)N(C)[C@H]3[C@@](O)(C(=O)OC)[C@H](OC(C)=O)[C@]5(CC)C=CCN6CC[C@]43[C@@H]65)C2)C1 | Vd | 28
CC(C)(C)NC(=O)[C@H]1CC[C@H]2[C@@H]3CC[C@H]4NC(=O)C=C[C@]4(C)[C@H]3CC[C@]12C [FINASTERIDE] | Vd | 1.1
O=P(O)(O)OC(Cn1cncn1)(Cn1cncn1)c1ccc(F)cc1F | Vd | 0.15
C[C@H]1COc2c(N3CCN(C)CC3)c(F)cc3c(=O)c(C(=O)O)cn1c23.C[C@H]1COc2c(N3CCN(C)CC3)c(F)cc3c(=O)c(C(=O)O)cn1c23.O | Vd | 1.2

###

Assay: clinical
Settings: human, in vivo, iv, Vdss
propertyMeasured: Vd

molecule | measValue
CNC(=C[N+](=O)[O-])NCCSCc1csc(CN(C)C)n1 [NIZATIDINE] | 1 L/kg
CO[C@H]1/C=C/O[C@@]2(C)Oc3c(C)c(O)c4c(O)c(c(/C=N/N5CCN(C)CC5)c(O)c4c3C2=O)NC(=O)/C(C)=C\C=C\[C@H](C)[C@H](O)[C@@H](C)[C@@H](O)[C@@H](C)[C@H](OC(C)=O)[C@@H]1C [RIFAMPIN] | 0.97 L/kg
CC(C)(C)NCC(O)c1ccc(O)c(CO)c1 (configuration not stated) [ALBUTEROL] | 1.9 L/kg
CCOC(=O)Nc1ccc(NCc2ccc(F)cc2)nc1N [FLUPIRTINE] | 1.1 L/kg
Cc1ncsc1CCCl [CLOMETHIAZOLE] | 6.6 L/kg
C=CC[C@@H]1/C=C(\C)C[C@H](C)C[C@H](OC)[C@H]2O[C@@](O)(C(=O)C(=O)N3CCCC[C@H]3C(=O)O[C@H](/C(C)=C/[C@@H]3CC[C@@H](O)[C@H](OC)C3)[C@H](C)[C@@H](O)CC1=O)[C@H](C)C[C@@H]2OC [TACROLIMUS ANHYDROUS] | 1.2 L/kg
Oc1ccc2c3c1O[C@H]1[C@@H](O)CC[C@@]4(O)[C@@H](C2)N(CC2CCC2)CC[C@]314 [NALBUPHINE] | 4.6 L/kg
COCc1c(C(C)C)nc(C(C)C)c(/C=C/[C@@H](O)C[C@@H](O)CC(=O)O)c1-c1ccc(F)cc1 [CERIVASTATIN] | 0.33 L/kg
CCN(CC)CCNC(=O)c1cc(Br)c(N)cc1OC [BROMOPRIDE] | 3.1 L/kg
Cc1ccsc1C(=CCCN1CCC[C@@H](C(=O)O)C1)c1sccc1C [TIAGABINE] | 1.1 L/kg
COc1cc(OC)c(C(=O)CCCN2CCCC2)c(OC)c1 [BUFLOMEDIL] | 1.3 L/kg
C[C@H](O)C(=O)Nc1c(I)c(C(=O)NC(CO)CO)c(I)c(C(=O)NC(CO)CO)c1I [IOPAMIDOL] | 0.28 L/kg
COC(=O)Nc1nc2ccc(C(=O)c3ccccc3)cc2[nH]1 [MEBENDAZOLE] | 1.2 L/kg
COc1cc(NC(C)CCCN)c2ncccc2c1 (configuration not stated) [PRIMAQUINE] | 4 L/kg
N[C@@H](CC(=O)N1CCn2c(nnc2C(F)(F)F)C1)Cc1cc(F)c(F)cc1F [SITAGLIPTIN] | 2.8 L/kg
C#CCN(C)[C@H](C)Cc1ccccc1 [SELEGILINE] | 1.9 L/kg
COc1ccc(C(=O)Nc2ccccc2CCC2CCCCN2C)cc1 (configuration not stated) [ENCAINIDE] | 2.2 L/kg
CN(C)/N=N/c1ccc(C(=O)O)cc1 | 0.25 L/kg
O=C1NCC2(CCN(CCc3ccccc3)CC2)O1 [FENSPIRIDE] | 3 L/kg
O=C(O)C1N=C(c2ccccc2)c2cc(Cl)ccc2NC1=O (configuration not stated) [CLORAZEPIC ACID] | 0.2 L/kg
CN[C@H](CC(C)C)C(=O)N[C@H]1C(=O)N[C@@H](CC(N)=O)C(=O)N[C@H]2C(=O)N[C@H]3C(=O)N[C@H](C(=O)N[C@H](C(=O)O)c4cc(O)cc(O)c4-c4cc3ccc4O)[C@H](O)c3ccc(c(Cl)c3)Oc3cc2cc(c3O[C@@H]2O[C@H](CO)[C@@H](O)[C@H](O)[C@H]2O[C@H]2C[C@](C)(N)[C@H](O)[C@H](C)O2)Oc2ccc(cc2Cl)[C@H]1O [VANCOMYCIN] | 0.54 L/kg
COCCCOc1ccnc(C[S+]([O-])c2nc3ccccc3[nH]2)c1C (configuration not stated) [RABEPRAZOLE] | 0.22 L/kg
CCOc1ccc(/C=C2\NCCc3cc(OCC)c(OCC)cc32)cc1OCC [DROTAVERINE] | 1.9 L/kg
COc1cc(Cc2cnc(N)nc2N)cc(OC)c1OC [TRIMETHOPRIM] | 1.5 L/kg
CCCCCNC(=N)N/N=C/c1c[nH]c2ccc(OC)cc12 [TEGASEROD] | 5.3 L/kg
Fc1ccc([C@@H]2CCNC[C@H]2COc2ccc3c(c2)OCO3)cc1 [PAROXETINE] | 18 L/kg
CCC(=O)OCC(=O)[C@@]1(OC(=O)CC)[C@@H](C)C[C@H]2[C@@H]3CCC4=CC(=O)C=C[C@]4(C)[C@@]3(Cl)[C@@H](O)C[C@@]21C [BECLOMETHASONE DIPROPIONATE] | 0.29 L/kg
Cc1cccc(C)c1OCC(C)N (configuration not stated) [MEXILETINE] | 5.9 L/kg
CC(C)NCC(O)c1ccc(O)c(O)c1 (configuration not stated) [ISOPROTERENOL] | 1.5 L/kg
Cc1nnc(SCC2=C(C(=O)O)N3C(=O)[C@@H](NC(=O)[C@H](O)c4ccccc4)[C@H]3SC2)s1 | 0.13 L/kg
COc1ccc(-c2nc3ccc(C4=NNC(=O)CC4C)cc3[nH]2)cc1 (configuration not stated) [PIMOBENDAN] | 2.04 L/kg
CC1CNc2c(cccc2S(=O)(=O)N[C@@H](CCCNC(=N)N)C(=O)N2CC[C@@H](C)C[C@@H]2C(=O)O)C1 (some centres not stated) [ARGATROBAN] | 0.17 L/kg

###

Test: clinical
Details: human, in vivo, iv
Square brackets hold non-standard residues; d marks the D form. Peptide text beside a SMILES is read from it. dPhe(4-Cl) = N[C@H](Cc1ccc(Cl)cc1)C(=O)O; d2Nal = N[C@H](Cc1ccc2ccccc2c1)C(=O)O; dCit = NC(=O)NCCC[C@@H](N)C(=O)O; d3Pal = N[C@H](Cc1cccnc1)C(=O)O
Each entry below carries its reported MRT.

molecule | endpointUnit | MRT
COc1cccc2c1C(=O)c1c(O)c3c(c(O)c1C2=O)C[C@@](O)(C(=O)CO)C[C@@H]3O[C@H]1C[C@H](N)[C@@H](O)[C@H](C)O1 [EPIRUBICIN] | h | 38
CN1CCC[C@H]1c1cccnc1 [NICOTINE] | h | 2.4
CO[C@H]1C[C@@H]2CC[C@@H](C)[C@@](O)(O2)C(=O)C(=O)N2CCCC[C@H]2C(=O)O[C@H]([C@H](C)C[C@@H]2CC[C@H](n3cnnn3)[C@H](OC)C2)CC(=O)[C@H](C)/C=C(\C)[C@@H](O)[C@@H](OC)C(=O)[C@H](C)C[C@H](C)/C=C/C=C/C=C/1C [ZOTAROLIMUS] | h | 33
C/C=C1\NC(=O)[C@H]2CSSCC/C=C/[C@H](CC(=O)N[C@H](C(C)C)C(=O)N2)OC(=O)[C@H](C(C)C)NC1=O [ROMIDEPSIN] | h | 2.6
CC1(C)S[C@@H]2[C@H](/N=C/N3CCCCCC3)C(=O)N2[C@H]1C(=O)O [AMDINOCILLIN] | h | 1
CC(=O)N[C@H](Cc1ccc2ccccc2c1)C(=O)N[C@H](Cc1ccc(Cl)cc1)C(=O)N[C@H](Cc1cccnc1)C(=O)N[C@@H](CO)C(=O)N[C@@H](Cc1ccc(O)cc1)C(=O)N[C@H](CCCNC(N)=O)C(=O)N[C@@H](CC(C)C)C(=O)N[C@@H](CCCNC(=N)N)C(=O)N1CCC[C@H]1C(=O)N[C@H](C)C(N)=O [CETRORELIX] (Ac-[d2Nal][dPhe(4-Cl)][d3Pal]SY[dCit]LRP[dA]-NH2) | h | 5.4
Nc1ncn([C@H]2C[C@H](O)[C@@H](CO)O2)c(=O)n1 [DECITABINE] | h | 0.59
NC(=O)OC[C@@H]1[C@H](NC(=O)/C(=N\OCC(=O)O)c2csc(N)n2)C(=O)N1S(=O)(=O)O [CARUMONAM] | h | 2
CC[C@H](C)C(=O)O[C@H]1C[C@@H](C)C=C2C=C[C@H](C)[C@H](CC[C@@H]3C[C@@H](O)CC(=O)O3)[C@H]21 [LOVASTATIN] | h | 1.3
CC1(C)S[C@@H]2[C@H](NC(=O)[C@H](C(=O)O)c3ccsc3)C(=O)N2[C@H]1C(=O)O [TICARCILLIN] | h | 1.5
COCCCOc1ccnc(C[S+]([O-])c2nc3ccccc3[nH]2)c1C (centres undefined) [RABEPRAZOLE] | h | 0.92
CC(C)(O)c1ccccc1CC[C@@H](SCC1(CC(=O)O)CC1)c1cccc(/C=C/c2ccc3ccc(Cl)cc3n2)c1 [MONTELUKAST] | h | 3.8
C=CCc1ccccc1OCC(O)CNC(C)C (centres undefined) [ALPRENOLOL] | h | 3.6
Clc1cccc(N2CCNCC2)c1 [CHLOROPHENYLPIPERAZINE] | h | 7
